We begin with a simple list: items and their reported pKd.
- STUDY TARGET: T1, Recombinant human Glypican-3 (human, UniProt P51654 25-559, limits assumed, randomly biotinylated via Lysine residues (EZ-Link Sulfo-NHS-LC-LC-Biotin) where captured on Neutravidin; not biotinylated where used as competitor in solution)
- T1 construct: Bought protein; The biotinylated and the non-biotinylated preparation are written as one molecule; also called GPC3; GPC-3
- T1 sequence (P51654 25-559 limits assumed): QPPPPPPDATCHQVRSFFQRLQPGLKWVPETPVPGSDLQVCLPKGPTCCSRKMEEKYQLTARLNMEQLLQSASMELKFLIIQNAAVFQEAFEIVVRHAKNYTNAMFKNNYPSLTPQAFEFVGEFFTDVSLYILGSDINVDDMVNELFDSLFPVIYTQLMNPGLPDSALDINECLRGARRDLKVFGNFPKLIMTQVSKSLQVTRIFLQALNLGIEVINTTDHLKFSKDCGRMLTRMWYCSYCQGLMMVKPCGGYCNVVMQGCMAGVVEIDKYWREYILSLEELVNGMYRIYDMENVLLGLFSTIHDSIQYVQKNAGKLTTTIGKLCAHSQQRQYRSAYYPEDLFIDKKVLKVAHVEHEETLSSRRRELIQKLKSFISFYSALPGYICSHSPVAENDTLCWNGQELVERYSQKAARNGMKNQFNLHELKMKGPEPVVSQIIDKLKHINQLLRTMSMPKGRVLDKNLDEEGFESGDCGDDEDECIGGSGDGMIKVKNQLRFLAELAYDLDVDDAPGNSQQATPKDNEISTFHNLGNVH
- ASSAY REMARKS: SPR (Biacore T100), Glypican-3 amine-coupled to a CM5 chip, mutein as analyte, evaluated conc 40/120 nM, 1:1 model
pKd: −log10 of the molar value.

BINDER	pKd
PIE-G3G (designed binder, C-terminal Strep-tag II; also called Lcn2 mutein; not shown: C-terminal Strep-tag II) QDSTSDLIPAPPLSKVPLQQNFQDNQFHGKWYVVGMAGNASLREDKDPRKMNATIYELKEDKSYNVTKVRFWHKKCYYSITTFVPGSQPGEFTLGDIKSYPGWTSYLVRVVSTNYNQHAMVFFKGVRQNREWFSITLYGRTKELTSELKENFIRFSKSLGLPENHIVFPVPIDQCIDGSAWSHPQFEK	9.29
PIE-G3C (designed binder, C-terminal Strep-tag II; also called Lcn2 mutein; not shown: C-terminal Strep-tag II) QDSTSDLIPAPPLSKVPLQQNFQDNQFHGKWYVVGRAGNVALREDKDPPKMRATIYELKEDKSYNVTNVRFAMKKCMYSIGTFVPGSQPGEFTLGQIKSEPGNTSNLVRVVSTNYNQHAMVFFKEVYQNREIFFITLYGRTKELTSELKENFIRFSKSLGLPENHIVFPVPIDQCIDGSAWSHPQFEK	8.92
PIE-G3E (designed binder, C-terminal Strep-tag II; also called Lcn2 mutein; not shown: C-terminal Strep-tag II) QDSTSDLIPAPPLSKVPLQQNFQDNQFHGKWYVVGSAGNHRLREDKDPRKMHATIYELKEDKSYNVTNVTFREKKCHYSIGTFVPGSQPGEFTLGKIKSNPGMTSFLVRVVSTNYNQHAMVFFKKVHQNREQFNITLYGRTKELTSELKENFIRFSKSLGLPENHIVFPVPIDQCIDGSAWSHPQFEK	9.46
PIE-G3D (designed binder, C-terminal Strep-tag II; also called Lcn2 mutein; not shown: C-terminal Strep-tag II) QDSTSDLIPAPPLSKVPLQQNFQDNQFHGKWYVVGMAGNARLREDKDPVKMTATIYELKEDKSYNVTAVQFRLKKCQYGITTFVPGSQPGEFTLGDIKSIPGLTSMLVRVVSTNYNQHAMVFFKRVRQNREFFDITLYGRTKELTSELKENFIRFSKSLGLPENHIVFPVPIDQCIDGSAWSHPQFEK	8.85

Hello, the source for this data is patent US20130296258A1, in case you need it.
